system: Plasmodium falciparum 3D7 strain; assay: P. falciparum 3D7 asexual blood stage assay (SYBR green readout); assay type: cell-based; details: 3D7, Erythrocyte, 72 h
Counter-ions that a name gives are not always drawn.
ATTRIBUTE_MEASURED: pIC50
Scale note: pIC50 = -log10(concentration in M).

Note to self: pIC50 of CO[C@H]1C[C@@H](N2C(=N)N[C@](C)(c3cccc(NC(=O)c4cncn4CC(F)(F)F)c3Cl)CC2=O)CCC1(F)F (relative stereo) [Example 2, hydrochloride] with Plasmodium falciparum 3D7 strain was 8.38
